Sourced from ChEMBL document CHEMBL1154368

Target: Mitogen-activated protein kinase 10 (Homo sapiens, UniProt P53779)
Sequence (P53779 whole entry): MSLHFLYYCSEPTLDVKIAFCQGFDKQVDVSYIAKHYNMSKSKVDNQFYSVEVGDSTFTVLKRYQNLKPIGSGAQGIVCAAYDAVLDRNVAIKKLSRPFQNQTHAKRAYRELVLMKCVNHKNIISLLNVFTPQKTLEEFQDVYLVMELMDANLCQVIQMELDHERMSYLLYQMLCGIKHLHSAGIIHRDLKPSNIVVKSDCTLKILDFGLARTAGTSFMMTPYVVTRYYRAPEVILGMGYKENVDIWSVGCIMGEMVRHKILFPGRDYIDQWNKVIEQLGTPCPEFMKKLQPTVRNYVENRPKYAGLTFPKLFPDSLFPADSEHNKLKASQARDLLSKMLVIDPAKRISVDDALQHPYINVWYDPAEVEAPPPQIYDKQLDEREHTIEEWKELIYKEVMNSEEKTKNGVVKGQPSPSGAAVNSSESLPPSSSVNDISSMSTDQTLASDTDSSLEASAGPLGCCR
Assay: Inhibition of JNK3
pIC50: −log10 of the molar value.

{"molecule": "COc1cccc(CN(CCN(C)C)C(=O)c2nc3ccc(-c4cn[nH]c4)cc3s2)c1", "relation.operator": "=", "pIC50": 4.86}
{"molecule": "CN(C)CCCNC(=O)c1ccc2c(c1)CC(c1nc3ccc(-c4cn[nH]c4)cc3s1)CO2 (stereo not drawn)", "relation.operator": "=", "pIC50": 5.26}
{"molecule": "CCN(Cc1cccc(OC)c1)C(=O)c1nc2ccc(-c3cn[nH]c3)cc2s1", "relation.operator": "<", "pIC50": 4.70}

---

Biological target: Rho-associated protein kinase 2 (Homo sapiens, UniProt O75116)
Sequence (O75116 whole entry): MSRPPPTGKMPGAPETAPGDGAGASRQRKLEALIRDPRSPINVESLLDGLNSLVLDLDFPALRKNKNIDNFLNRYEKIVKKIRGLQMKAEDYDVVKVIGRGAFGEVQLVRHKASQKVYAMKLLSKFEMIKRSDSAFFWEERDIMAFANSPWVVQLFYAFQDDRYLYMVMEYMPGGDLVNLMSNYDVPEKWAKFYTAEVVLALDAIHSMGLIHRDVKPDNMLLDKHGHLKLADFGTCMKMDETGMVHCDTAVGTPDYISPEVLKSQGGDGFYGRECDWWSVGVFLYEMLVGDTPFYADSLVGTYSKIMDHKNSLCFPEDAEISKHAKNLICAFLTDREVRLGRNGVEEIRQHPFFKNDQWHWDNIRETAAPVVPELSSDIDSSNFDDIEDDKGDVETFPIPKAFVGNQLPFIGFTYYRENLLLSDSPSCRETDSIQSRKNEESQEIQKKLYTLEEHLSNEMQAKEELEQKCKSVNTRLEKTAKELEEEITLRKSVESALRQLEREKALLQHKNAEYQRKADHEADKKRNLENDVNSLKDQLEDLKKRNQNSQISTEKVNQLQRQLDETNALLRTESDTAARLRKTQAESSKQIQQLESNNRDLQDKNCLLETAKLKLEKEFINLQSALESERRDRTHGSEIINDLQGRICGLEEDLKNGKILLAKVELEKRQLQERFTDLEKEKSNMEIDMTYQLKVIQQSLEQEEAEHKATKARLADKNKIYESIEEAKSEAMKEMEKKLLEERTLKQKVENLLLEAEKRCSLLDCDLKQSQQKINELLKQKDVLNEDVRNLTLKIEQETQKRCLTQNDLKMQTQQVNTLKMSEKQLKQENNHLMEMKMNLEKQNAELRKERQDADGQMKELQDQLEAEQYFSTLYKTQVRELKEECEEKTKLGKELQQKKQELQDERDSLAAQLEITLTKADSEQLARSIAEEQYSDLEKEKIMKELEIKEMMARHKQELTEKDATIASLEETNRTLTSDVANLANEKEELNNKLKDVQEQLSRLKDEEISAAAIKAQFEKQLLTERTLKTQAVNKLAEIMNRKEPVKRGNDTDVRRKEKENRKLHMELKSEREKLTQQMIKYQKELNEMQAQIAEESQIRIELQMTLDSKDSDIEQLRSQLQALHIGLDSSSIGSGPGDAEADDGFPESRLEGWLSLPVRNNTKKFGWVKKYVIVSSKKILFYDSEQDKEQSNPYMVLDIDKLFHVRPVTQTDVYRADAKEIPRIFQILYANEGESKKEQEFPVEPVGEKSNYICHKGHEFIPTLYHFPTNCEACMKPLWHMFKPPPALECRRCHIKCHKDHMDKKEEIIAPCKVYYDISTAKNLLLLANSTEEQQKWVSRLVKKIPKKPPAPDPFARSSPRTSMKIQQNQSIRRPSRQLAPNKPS
Assay: Inhibition of ROCK2

{"compound": "Nc1nccc(-c2ccc3nc(C4COc5ccccc5C4)sc3c2)n1 (stereo not drawn)", "IC50, nM": 9}
{"compound": "COCCN(Cc1cccc(OC)c1)C(=O)c1nc2ccc(-c3cn[nH]c3)cc2s1", "IC50, nM": 10}
{"compound": "Fc1cc(-c2cn[nH]c2)cc2sc(C3COc4ccccc4C3)nc12 (stereo not drawn)", "IC50, nM": 14}

---

Target: Rho-associated protein kinase 2 (Homo sapiens, UniProt O75116)
Assay: Inhibition of ROCK2
pIC50: −log10 of the molar value.
Examples of molecules with documented pIC50 follow.

{"molecule": "CN(C)CCNC(=O)c1ccc2c(c1)CC(c1nc3ccc(-c4cn[nH]c4)cc3s1)CO2 (stereo not drawn)", "measured.on": "Rho-associated protein kinase 2 (Homo sapiens, UniProt O75116)", "pIC50": 8.15}
{"molecule": "COc1cccc(CN(C(=O)c2nc3ccc(-c4cn[nH]c4)cc3s2)C2CC2)c1", "measured.on": "Rho-associated protein kinase 2 (Homo sapiens, UniProt O75116)", "pIC50": 7.03}
{"molecule": "Clc1ccc2c(c1)CC(c1nc3ccc(-c4cn[nH]c4)cc3s1)CO2 (stereo not drawn)", "measured.on": "Rho-associated protein kinase 2 (Homo sapiens, UniProt O75116)", "pIC50": 7.12}

---

Here the recorded IC50 is given for each entry.
Target: Rho-associated protein kinase 2 (Homo sapiens, UniProt O75116)

{"molecule": "CN(C)CCCNC(=O)c1ccc2c(c1)CC(c1nc3ccc(-c4cn[nH]c4)cc3s1)CO2 (centres undefined)", "IC50": "< 4 nM"}
{"molecule": "COc1cccc(CNC(=O)c2nc3ccc(-c4cn[nH]c4)cc3s2)c1", "IC50": "> 2700 nM"}
{"molecule": "Fc1cc(-c2cn[nH]c2)cc2sc(C3COc4ccccc4C3)nc12 (centres undefined)", "IC50": "> 2700 nM"}
{"molecule": "Fc1cc2nc(C3COc4ccccc4C3)sc2cc1-c1cn[nH]c1 (centres undefined)", "IC50": "> 2700 nM"}
